Reported growth inhibition by item:
- method.summary: NCI Yeast Anticancer Drug Screen. Data for the rad50 strain (AID 155);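 also: 0% = growth of vehicle-only cultures of the same strain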
- test.context: S. cerevisiae rad50 strain growth inhibition; at 50.0 µM; hits give high values
- Protocol: Growth inhibition of yeast strains with defined genetic alterations is measured as a screen for potential anti-cancer activity. Selected strains with alterations in DNA damage repair or cell cycle control were exposed to compounds and growth inhibition was measured relative to vehicle treated controls. The strain used in this assay is rad50
This is part of a sample that, as a whole, favours compounds with a hit. Of some 79,000 tested, about 15% had one in any assay.
Please give a number only; it is taken to be in %.

Please give measured growth inhibition of the following entry: O=NN1CCOC1=NC1CCCCC1
-3.65

---
Please give measured growth inhibition of the following entry: COc1ccccc1CC(C)N (stereo not given)
1.35

Please give measured growth inhibition of the following entry: C1CCNCC1.O=C([CH-]C(=O)C(F)(F)F)c1ccc2c(c1)C(=O)c1ccccc1-2.O=C([CH-]C(=O)C(F)(F)F)c1ccc2c(c1)C(=O)c1ccccc1-2.O=C([CH-]C(=O)C(F)(F)F)c1ccc2c(c1)C(=O)c1ccccc1-2.O=C([CH-]C(=O)C(F)(F)F)c1ccc2c(c1)C(=O)c1ccccc1-2.[Eu+3]
70.3

Please give measured growth inhibition of the following entry: CCOC(=O)C(C)Br (stereo not given)
15

Please give measured growth inhibition of the following entry: Cc1cccc(C)c1N=C(N)N[N+](=O)[O-]
89.5

Please give measured growth inhibition of the following entry: Clc1cccc2c(N3CC3)cnnc12
17.6

Please give measured growth inhibition of the following entry: CC(C)CCC1(CC[N+](C)(C)C)C(=O)NC(=O)NC1=O
5.95

----------
Reported growth inhibition by item:
- method.summary: NCI Yeast Anticancer Drug Screen. Data for the bub3 strain (AID 167)
- test.context: S. cerevisiae bub3 mutant strain, at 50.0 µM, hits give high values
- Protocol: Growth inhibition of yeast strains with defined genetic alterations is measured as a screen for potential anti-cancer activity. Selected strains with alterations in DNA damage repair or cell cycle control were exposed to compounds and growth inhibition was measured relative to vehicle treated controls. The strain used in this assay is bub3
About 79,000 compounds went through this panel and 15% of them were active in at least one assay; those are over-represented in the sample as a whole.
Please give a number only; it is taken to be in %.

Please give measured growth inhibition of the following entry: COC1=CC(=Nc2ccc(N(CCCl)CCCl)cc2)C=CC1=O
15.1

Please give measured growth inhibition of the following entry: C[CH2][Sn]([c]1ccccc1)[c]1ccccc1
35.5

Please give measured growth inhibition of the following entry: O=c1c2ccccc2[nH]c(=S)n1-c1cccc(C(F)(F)F)c1
77.7

Please give measured growth inhibition of the following entry: N#CCC[CH2][Sn]([Br])([Br])[c]1ccccc1
89.4

Please give measured growth inhibition of the following entry: CCC(Br)(CC)C(N)=O
-28.1

---
Please give measured growth inhibition of the following entry: CC(C)CCCC(C)CO[P+](=O)OCC(C)CCCC(C)C (configuration not stated)
5.8

Please give measured growth inhibition of the following entry: NC(=NC(c1ccccc1)c1ccccc1)N[N+](=O)[O-]
7.45

----------
- method.summary: NCI Yeast Anticancer Drug Screen. Data for the mec2-1 strain (AID 157)
- test.context: S. cerevisiae mec2-1 strain, at 50.0 µM
About 79,000 compounds went through this panel and 15% of them were active in at least one assay; those are over-represented in the sample as a whole. Activity calls are given as the source filed them. No stated cut-off is given here; in the data, active means growth inhibition above about 70%; inactive means the rest.
Hello, when you answer, please use one of the following outcomes: active, inactive

For this compound, state the assay outcome: CCNC(=O)CCl
inactive

For this compound, state the assay outcome: CC(C)CCC(=O)c1ccoc1
inactive

Now examine the next entry.
For this compound, state the assay outcome: Cc1ccc(C2=CCNCC2)cc1
inactive
